Here, molecules appear alongside pIC50 reported for RAC-alpha serine/threonine-protein kinase (Homo sapiens, UniProt P31749) in the literature.
Numbers only, as −log10 of the molar value.

Worked examples follow.
compound_structure_string | pIC50
Cc1occc1-c1cc(-c2c(Cl)cnn2C)ccc1C(=O)N[C@@H]1CNCC[C@H]1c1cccc(F)c1 | 8.10
Cn1ncc(Cl)c1-c1ccc(C(=O)N[C@@H]2CNCC[C@H]2c2ccc(F)c(F)c2)c(-c2csc(Cl)c2)c1 | 7.85
Cc1cnn2c1-c1cc(C(=O)N[C@H](CN)Cc3cccc(F)c3)sc1CCC2.O=C(O)/C=C\C(=O)O | 8.89
Nc1nc(-n2ccnc2)cc2c1cnc1cc(/C=C/CCN3CCCC3)ccc12 | 7.12
COc1cc2c(cc1OCCCN1CCCC1)ncc1c(N)nc(-n3ccnc3)cc12 | 6.42

--- query ---
Query: I'd like to know its pIC50. The molecule in question is CC(C)c1c(Oc2ccc(CN)cc2Cl)ccc2c1B(O)OC2
Result: 5.37
